# EE per entry
# ASSAY_NAME: Characterization of lipid nanoparticles encapsulating Fluc-mRNA
# Assay type: physicochemical
# MEASUREMENT_SETUP: encapsulation efficiency of LNP encapsulating Fluc-mRNA transcribed using the cap analog

COMPOUND	DISPLAY_UNIT	EE
COC1C(OP(=O)([O-])OC[C@H]2O[C@@H](n3cnc4c(=O)[nH]c(N)nc43)C(O)C2O)[C@@H](COP(=O)(O)OP(=O)(O)OP(=O)(O)OC[C@]23O[C@@H]([n+]4cn(C)c5c(=O)[nH]c(N)nc54)C(O[C@H]2CCS(=O)(=O)N(C)C)C3O)O[C@H]1n1cnc2c(N)ncnc21 (stereo partly shown)	%	96.3
COC1C(OP(=O)([O-])OC[C@H]2O[C@@H](n3cnc4c(=O)[nH]c(N)nc43)C(O)C2O)[C@@H](COP(=O)(O)OP(=O)(O)OP(=O)(O)OC[C@H]2O[C@@H]([n+]3cn(C)c4c(=O)[nH]c(N)nc43)C(O)C2OC)O[C@H]1n1cnc2c(N)ncnc21 (stereo partly shown) [N-7413, reference compound]	%	95.4
CNc1ncnc2c1ncn2[C@@H]1O[C@H](COP(=O)(O)OP(=O)(O)OP(=O)(O)OC[C@H]2O[C@@H]([n+]3cn(C)c4c(=O)[nH]c(N)nc43)C(O)C2O)C(OP(=O)([O-])OC[C@H]2O[C@@H](n3cnc4c(=O)[nH]c(N)nc43)C(O)C2O)C1OC (stereo partly shown) [m6A, reference compound]	%	94.2
COC1C(OP(=O)([O-])OC[C@H]2O[C@@H](n3cnc4c(=O)[nH]c(N)nc43)C(O)C2O)[C@@H](COP(=O)(O)OP(=O)(O)OP(=O)(O)OC[C@]23O[C@@H]([n+]4cn(C)c5c(=O)[nH]c(N)nc54)C(O[C@H]2CC(=O)N(C)C)C3O)O[C@H]1n1cnc2c(N)ncnc21 (stereo partly shown)	%	95.6

----------
# decapping rate lower than that of m6A per entry
# TEST_TARGET: DCP2 enzyme (Schizosaccharomyces pombe, UniProt O13828)
# Construct: purchased New England Biolabs
# Sequence (O13828 1-243 limits assumed): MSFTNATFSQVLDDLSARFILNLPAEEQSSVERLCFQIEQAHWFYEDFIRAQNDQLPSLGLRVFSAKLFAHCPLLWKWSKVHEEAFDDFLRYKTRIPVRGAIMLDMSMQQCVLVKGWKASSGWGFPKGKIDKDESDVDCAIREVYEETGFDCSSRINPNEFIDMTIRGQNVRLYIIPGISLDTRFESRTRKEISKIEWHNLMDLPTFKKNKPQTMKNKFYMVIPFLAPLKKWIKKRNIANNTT
# Sequence (Q9P805 whole entry partner): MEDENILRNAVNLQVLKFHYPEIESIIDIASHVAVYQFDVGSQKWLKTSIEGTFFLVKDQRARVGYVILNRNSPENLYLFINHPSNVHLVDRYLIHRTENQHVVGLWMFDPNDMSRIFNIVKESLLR
# Sequence (Q10108 155-180 partner limits assumed): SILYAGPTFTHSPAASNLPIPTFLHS
# ASSAY_NAME: Decapping enzyme stability test
# Type: biochemical
# MEASUREMENT_SETUP: difference to m6A
VALUE_TYPE: decapping rate lower than that of m6A (%)

MOLECULE	TEST_TARGET	REPORTED_RESULT
COC1C(OP(=O)([O-])OC[C@H]2O[C@@H](n3cnc4c(=O)[nH]c(N)nc43)C(O)C2O)[C@@H](COP(=O)(O)OP(=O)(O)OP(=O)(O)OC[C@]23O[C@@H]([n+]4cn(C)c5c(=O)[nH]c(N)nc54)C(O[C@H]2CCS(=O)(=O)N(C)C)C3O)O[C@H]1n1cnc2c(N)ncnc21 (stereo partly shown)	DCP2 enzyme (Schizosaccharomyces pombe, UniProt O13828)	16.3
COC1C(OP(=O)([O-])OC[C@H]2O[C@@H](n3cnc4c(=O)[nH]c(N)nc43)C(O)C2O)[C@@H](COP(=O)(O)OP(=O)(O)OP(=O)(O)OC[C@]23O[C@@H]([n+]4cn(C)c5c(=O)[nH]c(N)nc54)C(O[C@H]2CC(=O)N(C)C)C3O)O[C@H]1n1cnc2c(N)ncnc21 (stereo partly shown)	DCP2 enzyme (Schizosaccharomyces pombe, UniProt O13828)	15.7
COC1C(OP(=O)([O-])OC[C@H]2O[C@@H](n3cnc4c(=O)[nH]c(N)nc43)C(O)C2O)[C@@H](COP(=O)(O)OP(=O)(O)OP(=O)(O)OC[C@]23O[C@@H]([n+]4cn(C)c5c(=O)[nH]c(N)nc54)C(O[C@H]2CC(F)F)C3O)O[C@H]1n1cnc2c(N)ncnc21 (stereo partly shown)	DCP2 enzyme (Schizosaccharomyces pombe, UniProt O13828)	17.2
COC1C(OP(=O)([O-])OC[C@H]2O[C@@H](n3cnc4c(=O)[nH]c(N)nc43)C(O)C2O)[C@@H](COP(=O)(O)OP(=O)(O)OP(=O)(O)OC[C@]23O[C@@H]([n+]4cn(C)c5c(=O)[nH]c(N)nc54)C(O[C@H]2CCS(C)(=O)=O)C3O)O[C@H]1n1cnc2c(N)ncnc21 (stereo partly shown)	DCP2 enzyme (Schizosaccharomyces pombe, UniProt O13828)	14.7

----------
# ASSAY_NAME: Characterization of lipid nanoparticles encapsulating Fluc-mRNA
# Type: physicochemical
# MEASUREMENT_SETUP: encapsulation efficiency of LNP encapsulating Fluc-mRNA transcribed using the cap analog
# EE per entry
VALUE_TYPE: EE

MOLECULE	REPORTED_RESULT
COC1C(OP(=O)([O-])OC[C@H]2O[C@@H](n3cnc4c(=O)[nH]c(N)nc43)C(O)C2O)[C@@H](COP(=O)(O)OP(=O)(O)OP(=O)(O)OC[C@]23O[C@@H]([n+]4cn(C)c5c(=O)[nH]c(N)nc54)C(O[C@H]2CC(F)F)C3O)O[C@H]1n1cnc2c(N)ncnc21 (stereo partly shown) [YK-CAP-004]	93.7%
COC1C(OP(=O)([O-])OC[C@H]2O[C@@H](n3cnc4c(=O)[nH]c(N)nc43)C(O)C2O)[C@@H](COP(=O)(O)OP(=O)(O)OP(=O)(O)OC[C@]23O[C@@H]([n+]4cn(C)c5c(=O)[nH]c(N)nc54)C(O[C@H]2CC#N)C3O)O[C@H]1n1cnc2c(N)ncnc21 (stereo partly shown) [YK-CAP-002]	93.1%
COC1C(OP(=O)([O-])OC[C@H]2O[C@@H](n3cnc4c(=O)[nH]c(N)nc43)C(O)C2O)[C@@H](COP(=O)(O)OP(=O)(O)OP(=O)(O)OC[C@]23O[C@@H]([n+]4cn(C)c5c(=O)[nH]c(N)nc54)C(O[C@H]2CCS(C)(=O)=O)C3O)O[C@H]1n1cnc2c(N)ncnc21 (stereo partly shown) [YK-CAP-005]	94.5%
COC1C(OP(=O)([O-])OC[C@H]2O[C@@H](n3cnc4c(=O)[nH]c(N)nc43)C(O)C2O)[C@@H](COP(=O)(O)OP(=O)(O)OP(=O)(O)OC[C@]23COC(C2O)[C@H]([n+]2cn(C)c4c(=O)[nH]c(N)nc42)O3)O[C@H]1n1cnc2c(N)ncnc21 (stereo partly shown) [Compound 14, reference compound]	96.8%

----------
# TEST_TARGET: DCP2 enzyme (Schizosaccharomyces pombe)
# Construct: purchased New England Biolabs
# ASSAY_NAME: Decapping enzyme stability test
# Format: biochemical
# MEASUREMENT_SETUP: 30 pmol RNA, 50 U mRNA decapping enzyme, 37° C., 45 minutes
Please mark true if the recorded Decapping rate (%) of DCP2 enzyme is equal to or greater than 20%, and false if it falls below.

COMPOUND	TEST_TARGET	ANSWER_LABEL
COC1C(OP(=O)([O-])OC[C@H]2O[C@@H](n3cnc4c(=O)[nH]c(N)nc43)C(O)C2O)[C@@H](COP(=O)(O)OP(=O)(O)OP(=O)(O)OC[C@]23O[C@@H]([n+]4cn(C)c5c(=O)[nH]c(N)nc54)C(O[C@H]2CC#N)C3O)O[C@H]1n1cnc2c(N)ncnc21 (stereo partly shown) [YK-CAP-002]	DCP2 enzyme (Schizosaccharomyces pombe)	true
COC1C(OP(=O)([O-])OC[C@H]2O[C@@H](n3cnc4c(=O)[nH]c(N)nc43)C(O)C2O)[C@@H](COP(=O)(O)OP(=O)(O)OP(=O)(O)OC[C@]23O[C@@H]([n+]4cn(C)c5c(=O)[nH]c(N)nc54)C(O[C@H]2CCS(C)(=O)=O)C3O)O[C@H]1n1cnc2c(N)ncnc21 (stereo partly shown) [YK-CAP-005]	DCP2 enzyme (Schizosaccharomyces pombe)	false
COC1C(OP(=O)([O-])OC[C@H]2O[C@@H](n3cnc4c(=O)[nH]c(N)nc43)C(O)C2O)[C@@H](COP(=O)(O)OP(=O)(O)OP(=O)(O)OC[C@]23O[C@@H]([n+]4cn(C)c5c(=O)[nH]c(N)nc54)C(O[C@H]2CCN(C)C)C3O)O[C@H]1n1cnc2c(N)ncnc21 (stereo partly shown) [YK-CAP-001]	DCP2 enzyme (Schizosaccharomyces pombe)	true
COC1C(OP(=O)([O-])OC[C@H]2O[C@@H](n3cnc4c(=O)[nH]c(N)nc43)C(O)C2O)[C@@H](COP(=O)(O)OP(=O)(O)OP(=O)(O)OC[C@]23O[C@@H]([n+]4cn(C)c5c(=O)[nH]c(N)nc54)C(O[C@H]2CC(=O)N(C)C)C3O)O[C@H]1n1cnc2c(N)ncnc21 (stereo partly shown) [YK-CAP-003]	DCP2 enzyme (Schizosaccharomyces pombe)	false
COCC1C(O)[C@H]([n+]2cn(C)c3c(=O)[nH]c(N)nc32)O[C@@H]1COP(=O)(O)OP(=O)(O)OP(=O)(O)OC[C@H]1O[C@@H](n2cnc3c(N)ncnc32)C(OC)C1OP(=O)([O-])OC[C@H]1O[C@@H](n2cnc3c(=O)[nH]c(N)nc32)C(O)C1O (stereo partly shown) [HN3002, reference compound]	DCP2 enzyme (Schizosaccharomyces pombe)	true
COC1C(OP(=O)([O-])OC[C@H]2O[C@@H](n3cnc4c(=O)[nH]c(N)nc43)C(O)C2O)[C@@H](COP(=O)(O)OP(=O)(O)OP(=O)(O)OC[C@H]2O[C@@H]([n+]3cn(C)c4c(=O)[nH]c(N)nc43)C(O)C2OC)O[C@H]1n1cnc2c(N)ncnc21 (stereo partly shown) [N-7413, reference compound]	DCP2 enzyme (Schizosaccharomyces pombe)	true
COC1C(OP(=O)([O-])OC[C@H]2O[C@@H](n3cnc4c(=O)[nH]c(N)nc43)C(O)C2O)[C@@H](COP(=O)(O)OP(=O)(O)OP(=O)(O)OC[C@]23O[C@@H]([n+]4cn(C)c5c(=O)[nH]c(N)nc54)C(O[C@H]2CC(F)F)C3O)O[C@H]1n1cnc2c(N)ncnc21 (stereo partly shown) [YK-CAP-004]	DCP2 enzyme (Schizosaccharomyces pombe)	false
